All figures here come from patent US20250353873A1.

Consider the following substances; for each one, report its APOE RNA (% UTC).
tested on: human APOE RNA; test: Dose-dependent reduction of human APOE RNA in HepG2 cells, electroporation, 20,000 cells per well, average of GAPDH- and PPIA-normalized results (Example 4, Table 12); format: cell-based; conditions: 8,000 nM, HepG2, 20,000 cells per well
Strand notation (5' to 3'): a small letter for the sugar, then the base; units joined by * are phosphorothioate-linked, units joined directly phosphodiester-linked; [ ] holds rarer units or linkages, { } end groups; capitals alone tell only the bases. [ms] = mesyl phosphoramidate linkage; e = 2'-O-(2-methoxyethyl) (MOE); k = constrained ethyl (cEt); [5mC] = 5-methylcytosine; d = 2'-deoxy (DNA)
The response must be a number in % UTC with no trailing unit.

Please fill in: APOE RNA (% UTC) reported for 1778130: modified oligonucleotide complementary to human APOE RNA (eA*e[5mC]eTeTeG*kG*dT*dG[ms]dA[ms]dA*dT*d[5mC]*dT*dT*dT*dA[ms]kTkT*eA*eA; antisense) [compound 1778130] = 18

Please fill in: APOE RNA (% UTC) reported for ^mCksTksTksGdzGdzTdzGdzAdzAdzTds^mCdsTdsTdsTdsAdsTdsTksAksAdzAk (antisense k[5mC]*kT*kT*dG[ms]dG[ms]dT[ms]dG[ms]dA[ms]dA[ms]dT*d[5mC]*dT*dT*dT*dA*dT*kT*kA*dA[ms]kA) [Compound No. 1785602] = 21
